System: L1210 leukemia ip in BDF1 mice, survival T/C
Assay: NCI In Vivo Anticancer Drug Screen. Data for tumor model L1210 Leukemia (intraperitoneal) in B6D2F1 (BDF1) mice
Details: endpoint: mean survival time; dose: 100.0 mg/kg/injection; schedule: Q01DX001 (ip); vehicle: saline; higher = longer survival
Inconclusive results and toxic doses are left out.
What T/C was measured for each of the following?

Please respond with reported T/C (system L1210 leukemia ip in BDF1 mice, survival T/C) for CC(=O)NC1CCC(C)CC1 (stereo not drawn) .
93 % of control

Please respond with reported T/C (system L1210 leukemia ip in BDF1 mice, survival T/C) for CCOC(=S)SCCSC(=S)OCC .
105 % of control

Please respond with reported T/C (system L1210 leukemia ip in BDF1 mice, survival T/C) for Nc1ccn(C2CCCO2)c(=O)n1 (stereo not drawn) .
95 % of control

Please respond with reported T/C (system L1210 leukemia ip in BDF1 mice, survival T/C) for ClC1=C(Cl)C2(Cl)C3(Cl)C(Cl)=C(Cl)C(Cl)(C34OCCO4)C2(Cl)C12OCCO2 (stereo not drawn) .
105 % of control

Please respond with reported T/C (system L1210 leukemia ip in BDF1 mice, survival T/C) for Oc1ccc(O)c2c1CNCC2O (stereo not drawn) .
97 % of control

Please respond with reported T/C (system L1210 leukemia ip in BDF1 mice, survival T/C) for CC(=O)N(/C=C/C=C/C=C1\C(=O)N(c2ccc(S(=O)(=O)O)cc2)N=C1C)c1ccccc1 .
99 % of control

Please respond with reported T/C (system L1210 leukemia ip in BDF1 mice, survival T/C) for C=CN1CCCC1=O .
97 % of control

Please respond with reported T/C (system L1210 leukemia ip in BDF1 mice, survival T/C) for Cc1n[nH]c(=S)n1NC=O .
94 % of control

Please respond with reported T/C (system L1210 leukemia ip in BDF1 mice, survival T/C) for COC(=O)CCC(C(=O)OC)P(=O)(OC(C)C)OC(C)C (stereo not drawn) .
96 % of control

Please respond with reported T/C (system L1210 leukemia ip in BDF1 mice, survival T/C) for CCOC(=O)c1cccc2c([N+](=O)[O-])cccc12 .
94 % of control

Please respond with reported T/C (system L1210 leukemia ip in BDF1 mice, survival T/C) for Cc1cc(C)c(CCl)c(C)c1CCl .
119 % of control

Please respond with reported T/C (system L1210 leukemia ip in BDF1 mice, survival T/C) for ONc1ccccn1 .
95 % of control

Please respond with reported T/C (system L1210 leukemia ip in BDF1 mice, survival T/C) for COc1c2occc2c(OC)c2c(=O)cc(/C=C/c3ccncc3)oc12 .
97 % of control

Just for reference, PubChem BioAssay AID248 is where these values come from.
